experiment: Systemic pharmacokinetics in SD rats (UHPLC-MS); type: in vivo, Sprague-Dawley (SD) rats; details: male, Sprague-Dawley, rat, in vivo; SD rats, oral 25 mg/kg, n = 7; read-out: Vz/F
Readout Name: Vd/F (L/kg)
Give your result in L/kg as a bare value.

Q: Could you tell me which Vd/F is on file for CCCSc1ccc2nc(NC(=O)OC)[nH]c2c1 [ABZ, Albendazole] ?
Ans: 1990

----------
test: Systemic pharmacokinetics in SD rats (UHPLC-MS); assay type: in vivo, Sprague-Dawley (SD) rats; conditions: male, Sprague-Dawley, rat, in vivo, po, 25 mg/kg, SD rats, oral 25mg/kg of API
Readout Name: Cmax (ng/mL)
Give your result in ng/mL as a bare value.

Q: Could you tell me which Cmax is on file for CCCSc1ccc2nc(NC(=O)OC)[nH]c2c1 [ABZ, Albendazole] ?
Ans: 76.4

----------
assay: Systemic pharmacokinetics in SD rats (UHPLC-MS); type: in vivo, Sprague-Dawley (SD) rats; details: male, Sprague-Dawley, rat, in vivo; SD rats, oral 25 mg/kg, n = 7; Abz = ABZ content of ABZ-BA
Readout Name: AUC(0-inf) (ng·h/mL)
Give your result in ng·h/mL as a bare value.

Q: Could you tell me which AUC(0-inf) is on file for CCCSc1ccc2nc(NC(=O)OC)[nH]c2c1 [ABZ, Albendazole] ?
Ans: 101

----------
experiment: Systemic pharmacokinetics in SD rats (UHPLC-MS); type: in vivo, Sprague-Dawley (SD) rats; settings: male, Sprague-Dawley, rat, in vivo, po, 25 mg/kg, SD rats, oral 25 mg/kg, n = 7; Table 2
Readout Name: Cmax (ng/mL)
Give your result in ng/mL as a bare value.

Q: Could you tell me which Cmax is on file for CCCSc1ccc2nc(NC(=O)OC)[nH]c2c1 ?
Ans: 8.44

----------
test: Systemic pharmacokinetics in SD rats (UHPLC-MS); assay type: in vivo, Sprague-Dawley (SD) rats; conditions: male, Sprague-Dawley, rat, in vivo; SD rats, oral 25 mg/kg, n = 7; read-out: MRT(0–24)
Readout Name: MRT last (h)
Give your result in h as a bare value.

Q: Could you tell me which MRT last is on file for CCCSc1ccc2nc(NC(=O)OC)[nH]c2c1 ?
Ans: 11.6

----------
experiment: Systemic pharmacokinetics in SD rats (UHPLC-MS); format: in vivo, Sprague-Dawley (SD) rats; settings: male, Sprague-Dawley, rat, in vivo; SD rats, oral 25mg/kg; lower limit of detection; read-out: blood concentration after oral administration for 8 hours
Readout Name: concentration at 8 h

Q: Could you tell me which concentration at 8 h is on file for CCCSc1ccc2nc(NC(=O)OC)[nH]c2c1 [ABZ, Albendazole] ?
Ans: < 1 ng/mL

# credit: paper PMC9838834
